solubility at 30 min reference
Assay overview: Solubility of glycerol-containing formulations (post vortexing, 30 min and overnight at 18° C.)
Format: physicochemical
Condition notes: glycerol-containing formulation, 18 °C, compound 2 mg/mL; 0% glycerol; after 30 minutes incubation at 18° C.; read-out: Solubility of glycerol-containing formulations after 30 min incubation at 18° C., 0%

# count of solved cases: 2
compound="CCN1/C(=C/C(C)=C/c2sc3ccccc3[n+]2CC)Sc2ccccc21 [JAC-B2.5]" recorded_result="< 2000 µg/mL"
compound="CCN1/C(=C/C=C/c2sc3ccccc3[n+]2CC)Sc2ccccc21 [JAC-B1, 3′,3′-Diethylthiacarbocyanine iodide]" recorded_result="< 2000 µg/mL"

Data request: Fill in reported solubility at 30 min for this entry: CCN1/C(=C/C=C/c2oc3ccccc3[n+]2CC)Oc2ccccc21 [JAC-R1, 3′,3′-Diethyloxacarbocyanine iodide]
Data returned: < 2000 µg/mL

---

solubility at 30 s reference
Assay overview: Solubility of sodium deoxycholate-containing formulations (post vortexing, 30 min and overnight at 18° C.)
Assay type: physicochemical
Condition notes: sodium deoxycholate-containing formulation, aqueous with cosolvent or surfactant or cyclodextrin, compound 2 mg/mL; sodium deoxycholate 25 mg/mL; post vortexing; read-out: Solubility of sodium deoxycholate-containing formulations post vortexing, 25 mg/mL

Data request: Fill in reported solubility at 30 s for this entry: CCN1/C(=C/C=C/c2sc3ccccc3[n+]2CC)Sc2ccccc21 [JAC-B1, 3′,3′-Diethylthiacarbocyanine iodide]
Data returned: < 2000 µg/mL

Data request: Fill in reported solubility at 30 s for this entry: CCN1/C(=C/C=C/c2oc3ccccc3[n+]2CC)Oc2ccccc21 [JAC-R1, 3′,3′-Diethyloxacarbocyanine iodide]
Data returned: < 2000 µg/mL

---

Assay overview: Solubility of BSA-containing formulations (post vortexing, 30 min and overnight at 18° C.)
Format: physicochemical
Condition notes: BSA-containing formulation, aqueous with cosolvent or surfactant or cyclodextrin, compound 2 mg/mL; BSA 40 mg/mL; post vortexing; read-out: Solubility of BSA-containing formulations post vortexing, 40 mg/mL
Observable: solubility at 30 s

compound="CCN1/C(=C/C(C)=C/c2sc3ccccc3[n+]2CC)Sc2ccccc21 [JAC-B2.5]" recorded_result="< 2000 µg/mL"

Data request: Fill in reported solubility at 30 s for this entry: CCN1/C(=C/C=C/c2oc3ccccc3[n+]2CC)Oc2ccccc21 [JAC-R1, 3′,3′-Diethyloxacarbocyanine iodide]
Data returned: < 2000 µg/mL

---

Assay overview: Solubility of sodium deoxycholate-containing formulations (post vortexing, 30 min and overnight at 18° C.)
Assay type: physicochemical
Condition notes: sodium deoxycholate-containing formulation, aqueous with cosolvent or surfactant or cyclodextrin, compound 2 mg/mL; sodium deoxycholate 100 mg/mL; post vortexing; read-out: Solubility of sodium deoxycholate-containing formulations post vortexing, 100 mg/mL
Observable: solubility at 30 s

molecule="CCN1/C(=C/C=C/c2sc3ccccc3[n+]2CC)Sc2ccccc21 [JAC-B1, 3′,3′-Diethylthiacarbocyanine iodide]" recorded_result="< 2000 µg/mL"

Data request: Fill in reported solubility at 30 s for this entry: CCN1/C(=C/C=C/c2oc3ccccc3[n+]2CC)Oc2ccccc21 [JAC-R1, 3′,3′-Diethyloxacarbocyanine iodide]
Data returned: < 2000 µg/mL

---

Assay overview: Solubility of BSA-containing formulations (post vortexing, 30 min and overnight at 18° C.)
Type: physicochemical
Condition notes: BSA-containing formulation, 18 °C, aqueous with cosolvent or surfactant or cyclodextrin, compound 2 mg/mL; BSA 5 mg/mL; after 30 minutes incubation at 18° C.; read-out: Solubility of BSA-containing formulations after 30 min incubation at 18° C., 5 mg/mL
Observable: solubility at 30 min

Data request: Fill in reported solubility at 30 min for this entry: CCN1/C(=C/C=C/c2sc3ccccc3[n+]2CC)Sc2ccccc21 [JAC-B1, 3′,3′-Diethylthiacarbocyanine iodide]
Data returned: < 2000 µg/mL

Origin of the recorded values: patent US20230150960A1
